Measured pKd of individual entries
Molecular target: synthetic Aβ protofibrils (Aβ1-42-derived protofibrils) (UniProt P05067 672-713)
Sequence (P05067 672-713): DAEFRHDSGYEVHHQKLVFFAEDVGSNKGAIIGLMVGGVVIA
Test: Octet BLI (Protein G sensor); PF 0.9167 nM
pKd: −log10 of the molar value.

Binder	pKd
B73 (hybridoma-purified mAb) (antibody, V domains shown) VH: QLQLQMSGPGLVKPSETLSLTCTVSGGSISSSSYYWGWIRQSPGKGLEWIGSIYYSGRTYYNPSLKSRVTISVDTSKNQFSLKLSSVTAADTAMYYCARRSSGRPYYWGQGTLVTVSS VL: QAVVTQESALTTSPGGTVILTCRSSTGAVTTSNYANWVQEKPDHLFTGLIGETNNRAPGVPVRFSGSLIGDKAALTITGAQTEDDAMYFCALWYSTHWVFGGGTKLTVL	> 12.00
B90 (hybridoma-purified mAb) (antibody, V domains shown) VH: QVQLVESGGGVVQPGRSLRLSCAASGFTFSSYGMHWVRQAPGKGLEWVAIIWYDGSKKYYADSVKGRFTISRDNSKNTLYLQMNSLRVEDTAVYYCARRGRVGATRDYYYYSMDVWGQGTTVTVSS VL: AIQMTQSPSSLSASVGDRVTITCRASQGIRNDLGWFHQKPGKAPKLLIYAASSLQSGVPSRFSGSGSGTDFTLTISSLQPEDFATYYCLQDYVYPWTFGQGTKVEIK	> 12.00

Problem: For B54 (hybridoma-purified mAb) (antibody, V domains shown) VH: QVQLVESGGGVVQPGRSLRLSCAASGFTFSTYGMHWVRQAPGKGLEWVALIWYDGSKKYYADSVQGRFTISRDSSKNTLYLQMNSLRVEDTAVYYCARRGRVGVTRNYYYYGMDVWGQGTTVTVSS VL: AIQMTQSPSSLSASVGDRVTITCRTSQDIRNDLGWFQQKPGKAPKFLIYPASSLQGGVPSRFSGSGSGTDFILTISSLQPEDFATYYCLQDYNFPWTFGEGTKVEIK , what is its reported pKd?
Solution: > 12.00
